Sourced from patent US20200369765A1

Biological target: T1, Human Siglec-9 mutant M14 (human, UniProt Q9Y336 18-463)
T1 construct: Expressed on HEK293T cells; also called Mutant 14
T1 sequence (Q9Y336 other isoform, or with tags, fused parts or gaps mutant): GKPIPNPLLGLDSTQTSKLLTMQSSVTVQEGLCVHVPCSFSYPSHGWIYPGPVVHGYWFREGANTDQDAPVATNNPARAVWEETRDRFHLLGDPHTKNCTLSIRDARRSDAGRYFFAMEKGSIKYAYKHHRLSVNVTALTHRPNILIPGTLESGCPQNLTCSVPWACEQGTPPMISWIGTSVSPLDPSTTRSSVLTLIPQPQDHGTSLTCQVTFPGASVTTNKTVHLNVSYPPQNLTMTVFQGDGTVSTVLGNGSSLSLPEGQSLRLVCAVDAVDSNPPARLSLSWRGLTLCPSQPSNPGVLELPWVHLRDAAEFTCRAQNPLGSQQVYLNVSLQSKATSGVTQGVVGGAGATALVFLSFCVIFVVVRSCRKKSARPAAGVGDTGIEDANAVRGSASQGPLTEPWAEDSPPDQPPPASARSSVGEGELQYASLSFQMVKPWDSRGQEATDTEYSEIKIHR
Experiment: flow cytometry, HEK293T transfectants
measured parameter: binding result

INSERT INTO results (binder, measured_parameter, result) VALUES
  ('mAb2 (antibody, human IgG1, V domains shown) VH: EVQLQESGPGLVKPSQSLSLTCTVTGYSITGGFAWNWIRQFPGNTLEWMGYIGYGGSTSYNPSLNSRISITRDTSKNHFFLQFNSVTTEDSATYYCARGDYLFAYWGQGTLVTVSA VL: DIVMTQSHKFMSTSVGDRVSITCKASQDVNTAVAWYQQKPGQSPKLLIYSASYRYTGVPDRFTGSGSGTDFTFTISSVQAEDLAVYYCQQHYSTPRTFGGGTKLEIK', 'binding result', 'binds'),
  ('Fab.C (Fab of mAbC) (Fab, V domains shown) VH: QIQLVQSGPELKKPGETVKISCKASGYTFTNYEMNWVKEAPGKGLKWMGWINTYTGESTYADDFKGRFAFSLETSASTVYLQINNLKDEDVATYFCVRDDYGRSYGFAYWGQGTLVTVSA VL: NIVLTQSPASLTVSLGQRANISCRASESVDSYGNSFMHWYQQKPGQPPKLLIYLASKLESGVPARFSGSGSRTDFTLTIDPVETDDAATYYCHQNNEDPPWTFGGGTKLEIK', 'binding result', 'binds'),
  ('mAbD (antibody, human IgG1, V domains shown) VH: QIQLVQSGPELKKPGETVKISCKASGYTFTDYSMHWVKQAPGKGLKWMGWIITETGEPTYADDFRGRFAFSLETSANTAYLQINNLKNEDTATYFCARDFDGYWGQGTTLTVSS VL: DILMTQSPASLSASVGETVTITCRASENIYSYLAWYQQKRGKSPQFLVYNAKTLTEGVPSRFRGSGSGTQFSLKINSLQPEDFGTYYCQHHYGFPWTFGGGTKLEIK', 'binding result', 'binds');
